- assayed.system: ROS methyltransferase (bovine retinal rod outer segment S-adenosyl-L-methionine-dependent methyltransferase) (Bos taurus, UniProt A0AAA9SD88)
- Construct: utilizing ROS membranes as the source of methyltransferase enzyme; tissue Wanda Lawson Co., Lincoln, Nebr; (frozen bovine retinas); host or cells: bovine retinal rod outer segment (ROS) membranes
- Sequence (A0AAA9SD88 1-284): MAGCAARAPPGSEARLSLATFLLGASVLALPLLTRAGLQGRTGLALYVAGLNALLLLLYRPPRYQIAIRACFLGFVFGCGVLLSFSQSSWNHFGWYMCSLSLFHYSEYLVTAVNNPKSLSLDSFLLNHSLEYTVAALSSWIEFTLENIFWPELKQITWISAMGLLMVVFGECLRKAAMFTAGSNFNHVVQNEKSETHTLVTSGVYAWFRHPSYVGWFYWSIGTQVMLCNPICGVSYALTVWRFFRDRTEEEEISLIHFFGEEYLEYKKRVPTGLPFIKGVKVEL
- assay.method.text: ROS methyltransferase assay: compounds as substrates (Km) or inhibitors (Ki) of AFC methylation
- Assay type: biochemical
metric.name: Ki (µM)

{"columns": ["chemical.structure", "recorded.measurement"],
 "data": [
  ["CC(C)=CCC/C(C)=C/CC/C(C)=C/C[Se]CCC(=O)O", 29]
]}

====

- assayed.system: ROS methyltransferase (bovine retinal rod outer segment S-adenosyl-L-methionine-dependent methyltransferase) (Bos taurus)
- Construct: utilizing ROS membranes as the source of methyltransferase enzyme; tissue Wanda Lawson Co., Lincoln, Nebr; (frozen bovine retinas); host or cells: bovine retinal rod outer segment (ROS) membranes
- assay.method.text: ROS methyltransferase assay: compounds as substrates (Km) or inhibitors (Ki) of AFC methylation
- Format: biochemical
- particulars: Table 1; substrates; read-out: Km
Decision: Km >= 20 µM yields 1.0, all other cases yield 0.0.

{"columns": ["compound", "assigned.label"],
 "data": [
  ["CC(C)=CCC/C(C)=C/CC/C(C)=C/COCCC(=O)O [3-farnesyloxypropionic acid]", 1.0],
  ["CC(C)=CCC/C(C)=C/CC/C(C)=C/CSCC(C)C(=O)O (centres unmarked) [2-methyl-3-farnesylthiopropionic acid]", 1.0],
  ["CC(=O)N[C@@H](CSC/C=C(\\C)CC/C=C(\\C)CCC=C(C)C)C(=O)O [AFC, N-acetyl-S-farnesylcysteine]", 1.0],
  ["CC(C)=CCC/C(C)=C/CC/C(C)=C/CSCCC(=O)O [FTP, 3-farnesylthiopropionic acid]", 0.0],
  ["CC(=O)N[C@H](CSC/C=C(\\C)CC/C=C(\\C)CCC=C(C)C)C(=O)O [N-acetyl-S-farnesyl-D-cysteine]", 1.0]
]}

====

pKi: recorded values
- assayed.system: ROS methyltransferase (bovine retinal rod outer segment S-adenosyl-L-methionine-dependent methyltransferase) (Bos taurus)
- Construct: utilizing ROS membranes as the source of methyltransferase enzyme; tissue Wanda Lawson Co., Lincoln, Nebr; (frozen bovine retinas); host or cells: bovine retinal rod outer segment (ROS) membranes
- assay.method.text: ROS methyltransferase assay: compounds as substrates (Km) or inhibitors (Ki) of AFC methylation
- Type: biochemical
- particulars: Table 1; conventional inhibitors; read-out: Ki
pKi: −log10 of the molar value.
metric.name: pKi

{"columns": ["molecule", "inequality.operator", "recorded.measurement"],
 "data": [
  ["CC(=O)N[C@@H](C[S+]([O-])C/C=C(\\C)CC/C=C(\\C)CCC=C(C)C)C(=O)O (stereo partly drawn)", "=", 4.88],
  ["CC(C)=CCC/C(C)=C/CC/C(C)=C/C[S+]([O-])CC(=O)O (stereo not drawn) [2-farnesylthioacetic acid sulfoxide]", ">", 5.00],
  ["CC(=O)N[C@@H](CCSC/C=C(\\C)CC/C=C(\\C)CCC=C(C)C)C(=O)O", "=", 4.44]
]}

====

- assayed.system: ROS methyltransferase (bovine retinal rod outer segment S-adenosyl-L-methionine-dependent methyltransferase) (Bos taurus, UniProt A0AAA9SD88)
- Construct: utilizing ROS membranes as the source of methyltransferase enzyme; tissue Wanda Lawson Co., Lincoln, Nebr; (frozen bovine retinas); host or cells: bovine retinal rod outer segment (ROS) membranes
- assay.method.text: ROS methyltransferase assay: compounds as substrates (Km) or inhibitors (Ki) of AFC methylation
- Assay type: biochemical
- particulars: Table 1; conventional inhibitors; read-out: Ki
metric.name: Ki (µM)

{"columns": ["compound", "metric.name", "unit.annotation", "recorded.measurement"],
 "data": [
  ["CC(C)=CCC/C(C)=C/CC/C(C)=C/CSCC(=O)O", "Ki", "µM", 4.6],
  ["CC(C)=CCC/C(C)=C/CC/C(C)=C/CS/C=C\\C(=O)O [3-farnesylthio-cis-acrylic acid]", "Ki", "µM", 40],
  ["CC(C)=CCC/C(C)=C/CC/C(C)=C/CS/C=C/C(=O)O [3-farnesylthio-trans-acrylic acid]", "Ki", "µM", 37]
]}

Reference for the values: patent US5202456A
